molecular target: ROCK2 (Homo sapiens, UniProt O75116)
Sequence (O75116 whole entry, species assumed): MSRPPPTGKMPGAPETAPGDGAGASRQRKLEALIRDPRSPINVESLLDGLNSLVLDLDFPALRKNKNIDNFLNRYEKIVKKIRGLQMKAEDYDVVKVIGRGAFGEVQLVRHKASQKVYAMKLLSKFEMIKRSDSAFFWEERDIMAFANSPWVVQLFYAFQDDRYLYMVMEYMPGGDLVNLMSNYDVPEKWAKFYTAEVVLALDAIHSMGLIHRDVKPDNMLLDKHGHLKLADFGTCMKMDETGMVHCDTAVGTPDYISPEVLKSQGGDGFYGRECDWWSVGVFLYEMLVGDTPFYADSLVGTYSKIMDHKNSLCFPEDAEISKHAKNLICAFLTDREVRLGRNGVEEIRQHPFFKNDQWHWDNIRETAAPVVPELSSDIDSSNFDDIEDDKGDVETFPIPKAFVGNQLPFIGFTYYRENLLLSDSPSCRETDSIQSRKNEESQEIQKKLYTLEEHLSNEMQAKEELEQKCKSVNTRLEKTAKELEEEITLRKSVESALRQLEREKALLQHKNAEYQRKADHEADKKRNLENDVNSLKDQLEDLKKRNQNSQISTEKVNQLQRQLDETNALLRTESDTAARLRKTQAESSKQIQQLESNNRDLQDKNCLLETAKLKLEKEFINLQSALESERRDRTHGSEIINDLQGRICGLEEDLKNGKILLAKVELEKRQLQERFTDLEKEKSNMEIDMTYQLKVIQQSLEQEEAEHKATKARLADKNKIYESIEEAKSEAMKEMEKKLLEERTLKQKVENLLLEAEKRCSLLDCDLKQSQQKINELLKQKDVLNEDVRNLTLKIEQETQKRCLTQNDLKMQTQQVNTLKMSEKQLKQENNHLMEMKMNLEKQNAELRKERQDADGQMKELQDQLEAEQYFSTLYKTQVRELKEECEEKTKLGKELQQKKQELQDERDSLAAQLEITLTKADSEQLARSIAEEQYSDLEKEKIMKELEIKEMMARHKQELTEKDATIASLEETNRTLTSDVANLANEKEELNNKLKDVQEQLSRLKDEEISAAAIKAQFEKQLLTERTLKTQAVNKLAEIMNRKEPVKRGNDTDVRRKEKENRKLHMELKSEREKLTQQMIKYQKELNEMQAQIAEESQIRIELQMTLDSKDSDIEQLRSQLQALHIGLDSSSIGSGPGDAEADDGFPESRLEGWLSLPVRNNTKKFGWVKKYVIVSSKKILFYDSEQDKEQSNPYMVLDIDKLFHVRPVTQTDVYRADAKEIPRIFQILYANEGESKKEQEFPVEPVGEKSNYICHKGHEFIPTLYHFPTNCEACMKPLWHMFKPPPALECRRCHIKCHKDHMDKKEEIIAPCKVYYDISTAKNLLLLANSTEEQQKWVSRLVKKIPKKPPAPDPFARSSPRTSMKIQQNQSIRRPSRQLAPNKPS
Outcome measure: IC50

Would you please look over these solved cases?
1) [H][C@]1(c2n[nH]c(=O)c3ccccc32)C[C@]2(C[C@@H](NC(=O)c3cnc4cc(OC(C)C)ccn34)C2)C1 (some centres unmarked) ... 2.01 to 5 nM
2) [H][C@]1(c2n[nH]c(=O)c3ccccc32)C[C@]2(C[C@@H](NC(=O)c3cnc4c(C(F)(F)F)cccn34)C2)C1 (some centres unmarked) ... 2.01 to 5 nM

Look at each compound and report its IC50.
1. O=C(NC1CC2(C1)CC(c1n[nH]c(=O)c3ccccc13)C2)c1cnn2cc(-n3cncn3)ccc12 (centres unmarked)
2. Cc1noc(C)c1-c1ccc2c(C(=O)NC3CC4(C3)CC(c3n[nH]c(=O)c5ccccc35)C4)nn(CC(C)(C)O)c2c1 (centres unmarked)
3. Cc1sc(N2CC[C@@H](F)C2)nc1C(=O)N[C@H]1CC2(C1)C[C@H](c1n[nH]c(=O)c3ccccc31)C2 (some centres unmarked)
4. [H][C@]1(c2n[nH]c(=O)c3ccccc32)C[C@]2(C[C@@H](NC(=O)c3ccc(-c4cnc(C)s4)c(OC)c3)C2)C1 (some centres unmarked)
5. CC(C)(O)Cn1nc(C(=O)NC2CC3(C2)CC(F)(c2n[nH]c(=O)c4ccccc24)C3)c2ccccc21 (centres unmarked)
6. O=C(NC1CC2(C1)CC(c1n[nH]c(=O)c3ccccc13)C2)N1CCc2cc(-c3cnn(C4CCOC4)c3)ccc21 (centres unmarked)
7. O=C(N[C@H]1CC2(C1)C[C@H](c1n[nH]c(=O)c3ccccc31)C2)c1cnn2cc(OC[C@@H](O)C(F)(F)F)ccc12 (some centres unmarked) [Example 119]

2.01 to 5 nM
2.01 to 5 nM
2.01 to 5 nM
2.01 to 5 nM
15.1 to 100 nM
2.01 to 5 nM
0.2 to 2 nM

Give measured IC50 for every item shown.
1. COc1cccc(-c2ccc3c(C(=O)NC4CC5(C4)CC(c4n[nH]c(=O)c6ccccc46)C5)nn(CC(C)(C)O)c3c2)n1 (centres unmarked)
2. [H][C@]1(c2n[nH]c(=O)c3ccccc32)C[C@]2(C[C@@H](NC(=O)c3ccc(-c4cnn(CC)c4)c(F)c3)C2)C1 (some centres unmarked)
3. O=C(NC1CC2(C1)CC(c1n[nH]c(=O)c3ccccc13)C2)c1ccnn1CC(F)F (centres unmarked)
4. [H][C@]1(c2n[nH]c(=O)c3ccccc32)C[C@]2(C[C@@H](NC(=O)c3cnc4c(Cl)cccn34)C2)C1 (some centres unmarked)
5. O=C(NC1CC2(C1)CC(c1n[nH]c(=O)c3ccccc13)C2)c1noc2ccc(Cl)cc12 (centres unmarked)

["2.01 to 5 nM", "15.1 to 100 nM", "100 to 2100 nM", "2.01 to 5 nM", "2.01 to 5 nM"]

* * *

target: ROCK2 (Homo sapiens)
pIC50: −log10 of the molar value.
Outcome measure: pIC50

The following compounds each have a reported value; give each one's pIC50.
1. [H][C@]1(c2n[nH]c(=O)c3ccccc32)C[C@@]2(C[C@H](N3C[C@@H](Cc4ccccc4)NC3=O)C2)C1 (stereo partly drawn) [Example 459]
2. COc1ccc2c(c1)CCN2C(=O)NC1CC2(C1)CC(c1n[nH]c(=O)c3ccccc13)C2 (stereo not drawn) [Example 258]
3. O=C(NC1CC2(C1)CC(c1n[nH]c(=O)c3ccccc13)C2)c1cnn2cc(OCCn3cccn3)ccc12 (stereo not drawn) [Example 81]

["5.68 to 7.00", "7.82 to 8.29", "8.70 to 9.70"]

Values from patent US9902702B2
